# assayed.target: POLRMT;TEFM (Homo sapiens;Homo sapiens, UniProt O00411;Q96QE5 42-1230;36-360, |)
# Sequence (O00411 42-1230, chain 1 of 2): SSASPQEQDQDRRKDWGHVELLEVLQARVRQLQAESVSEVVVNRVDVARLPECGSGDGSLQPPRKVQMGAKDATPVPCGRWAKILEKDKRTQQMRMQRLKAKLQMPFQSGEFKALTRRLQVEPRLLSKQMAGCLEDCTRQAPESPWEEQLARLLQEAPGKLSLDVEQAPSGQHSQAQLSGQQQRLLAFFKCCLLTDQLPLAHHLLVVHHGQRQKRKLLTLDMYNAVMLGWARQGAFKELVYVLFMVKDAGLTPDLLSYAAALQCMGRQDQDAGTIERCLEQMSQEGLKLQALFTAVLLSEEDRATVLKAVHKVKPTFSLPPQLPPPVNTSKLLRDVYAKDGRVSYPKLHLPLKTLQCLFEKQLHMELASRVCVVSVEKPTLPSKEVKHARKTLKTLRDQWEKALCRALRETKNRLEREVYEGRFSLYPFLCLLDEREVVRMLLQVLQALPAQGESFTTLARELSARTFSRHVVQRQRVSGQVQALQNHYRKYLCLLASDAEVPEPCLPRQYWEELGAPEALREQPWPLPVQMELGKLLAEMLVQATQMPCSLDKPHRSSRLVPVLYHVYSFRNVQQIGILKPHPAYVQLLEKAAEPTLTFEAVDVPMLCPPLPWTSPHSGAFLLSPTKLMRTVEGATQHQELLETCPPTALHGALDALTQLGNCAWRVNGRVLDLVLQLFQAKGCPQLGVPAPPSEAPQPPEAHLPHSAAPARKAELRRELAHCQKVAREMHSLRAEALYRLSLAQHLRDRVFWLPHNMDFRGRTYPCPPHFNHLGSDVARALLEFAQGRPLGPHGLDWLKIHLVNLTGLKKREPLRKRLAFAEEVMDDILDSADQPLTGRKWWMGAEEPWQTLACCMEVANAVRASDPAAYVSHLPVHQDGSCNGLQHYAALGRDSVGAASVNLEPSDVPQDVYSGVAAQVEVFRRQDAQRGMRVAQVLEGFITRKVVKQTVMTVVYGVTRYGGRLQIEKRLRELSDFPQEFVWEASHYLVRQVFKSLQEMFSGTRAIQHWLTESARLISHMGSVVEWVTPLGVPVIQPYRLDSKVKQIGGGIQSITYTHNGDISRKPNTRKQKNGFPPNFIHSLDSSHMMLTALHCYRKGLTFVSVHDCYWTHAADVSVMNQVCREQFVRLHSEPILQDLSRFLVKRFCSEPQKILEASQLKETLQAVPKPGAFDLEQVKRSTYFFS
# Sequence (Q96QE5 36-360, chain 2 of 2): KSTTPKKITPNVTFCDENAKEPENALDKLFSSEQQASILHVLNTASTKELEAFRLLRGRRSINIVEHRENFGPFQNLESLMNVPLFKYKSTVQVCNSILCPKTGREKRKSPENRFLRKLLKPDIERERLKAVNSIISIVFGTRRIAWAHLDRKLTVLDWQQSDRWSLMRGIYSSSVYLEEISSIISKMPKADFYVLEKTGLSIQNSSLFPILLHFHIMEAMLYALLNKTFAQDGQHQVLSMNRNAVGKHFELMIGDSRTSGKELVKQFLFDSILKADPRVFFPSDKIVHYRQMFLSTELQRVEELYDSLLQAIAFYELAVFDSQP
# assay.info: MST; POLRMT titrated with 2000 nM TEFM; 500 uM ATP (one nt incorporation, paused), 10 mM Mg2+; MST: 25 mM Tris-HCl pH 8.0, 100 mM NaCl, 10 mM MgCl2, 10% glycerol, 1 mM DTT, 500 uM ATP, 0.05% Tween-20, 15 nM template, 22 C; footprinting: 25 mM Tris-HCl pH
# condition.set: protein: recombinant;recombinant; copies: 1;2; label: 5' Alexa488 on DNA; 8 bp DNA:RNA hybrid; DNA 5' overhang 10 nt; RNA 5' overhang 4 nt (UUUU)
reported.property: pKd
One number for each entry, as −log10 of the molar value.

Item under review: elongation-like DNA:RNA template (18-mer DNA / 12-mer RNA) (DNA:RNA) DNA: GGGAATGCATGGCGCGGC RNA: UUUUGCCGCGCC . Reported pKd?
7.95
